Items are presented alongside their recorded melting point.

Here are 2 compounds together with their reported answers.
Compound	melting point
COc1cc2oc(=O)c(C(=O)Nc3ccc(O)c(C(=O)O)c3)cc2cc1Cl [Compound 88]	> 300 °C
COc1ccc2cc(C(=O)Nc3cccc(C(=O)O)c3)c(=O)oc2c1 [Compound 2]	> 300 °C

Task item: Hello, please tell me recorded melting point for this one: COc1ccc2cc(C(=O)Nc3ccc(C(=O)O)c(O)c3)c(=O)oc2c1 [Compound 7]
Reply: 279 °C (dec.)

Source of measurements: patent US8338401B2
